This collection of values is drawn from paper PMC2808332.

tgt: T1, NEMO (NF-κB essential modulator), tag-free, biotinylated (human, UniProt Q9Y6K9 1-419, biotin (in vitro biotinylation kit, biotin:NEMO molar ratio 9:1))
T1 construct: NEMO, NF-κB essential modulator, human, 48 kDa; also called biotinylated NEMO; biotin-NEMO; source: E. coli BL21(DE3), purified (glutathione sepharose), GST removed with thrombin, biotinylated in vitro
test: peptide or protein array; Invitrogen Protoarray v4.0, about 8,400 human proteins spotted on nitrocellulose-coated glass slides; 10 µg biotinylated tag-free NEMO in 120 µl probing buffer (PBS, 0.5 mM DTT, 5 mM MgCl2, 5% glycerol, 0.05% Triton X-100), 4°C, 1.5 h; bound NEMO detected with labelled streptavidin; hits Z-score > 3, hits of the biotin-GST control array subtracted
condition parameters: both partners purified
measured quantity: binding result

binder="TBC1 domain family, member 7 (natural protein, human, UniProt Q9P0N9-1 1-293, looked up, TBC1 domain family, member 7, human; also called TBC1D7; source: insect cell/baculovirus, purified, spotted (Invitrogen Protoarray v4.0)) MTEDSQRNFRSVYYEKVGFRGVEEKKSLEILLKDDRLDTEKLCTFSQRFPLPSMYRALVWKVLLGILPPHHESHAKVMMYRKEQYLDVLHALKVVRFVSDATPQAEVYLRMYQLESGKLPRSPSFPLEPDDEVFLAIAKAMEEMVEDSVDCYWITRRFVNQLNTKYRDSLPQLPKAFEQYLNLEDGRLLTHLRMCSAAPKLPYDLWFKRCFAGCLPESSLQRVWDKVVSGSCKILVFVAVEILLTFKIKVMALNSAEKITKFLENIPQDSSDAIVSKAIDLWHKHCGTPVHSS" observed_result=binds
binder="Centaurin, alpha 2 (natural protein, human, UniProt Q9NPF8 1-381, looked up, Centaurin, alpha 2, human; also called CENTA2; source: insect cell/baculovirus, purified, spotted (Invitrogen Protoarray v4.0)) MGDRERNKKRLLELLRAPDTGNAHCADCGAADPDWASYKLGIFICLNCCGVHRNFPDISRVKSVRLDFWDDSIVEFMIHNGNLRVKAKFEARVPAFYYIPQANDCLVLKEQWIRAKYERREFMADGETISLPGNREGFLWKRGRDNSQFLRRKFVLLAREGLLKYFTKEQGKSPKAVISIKDLNATFQTEKIGHPHGLQITYRRDGHTRNLFVYHESGKEIVDWFNALRAARLQYLKMAFPELPESELVPFLTRNYLKQGFMEKTGPKQKEPFKKRWFALDCHERRLLYYKNPLDAFEQGQVFLGNKEQGYEAYEDLPKGIRGNRWKAGLTIVTPERRFVLTCPSEKEQQEWLESLRGVLSSPLTPLNRLTASTESGRSSR" observed_result=binds
